assayText: Lipophilicity, log D at pH 7.4
Format: physicochemical
conditionsUsed: buffer
Reported logD values for a set of compounds
Form: value (number only, do not type unit).

smiles: O=C(O)c1ccc(OC/C=C/Cn2c(=O)n(C(c3ccccc3)c3ccccc3)c(=O)c3ccc(N4CCSCC4)cc32)cc1
reportedProperty: logD
numericValue: 3.6

smiles: CSc1ccc2c(=O)n(C(c3ccccc3)c3ccccc3)c(=O)n(C/C=C/COc3ccc(C(=O)O)cc3)c2c1
reportedProperty: logD
numericValue: 3.2

smiles: Cc1ccc2c(=O)n(C(c3ccccc3)c3ccccc3)c(=O)n(C/C=C/COc3ccc(C(=O)O)cc3)c2c1
reportedProperty: logD
numericValue: 3.2

smiles: COc1ccc2c(=O)n(C(c3ccccc3)c3ccccc3)c(=O)n(C/C=C/COc3ccc(C(=O)O)cc3)c2c1
reportedProperty: logD
numericValue: 2.8

// returns reported logD for input O=C(O)c1ccc(OCCn2c(=O)c3ccc(Cl)cc3n(C(c3ccccc3)c3ccccc3)c2=O)cc1
3.3

Also, Cc1c(CCOc2ccc(C(=O)O)cc2)c2cc(Cl)ccc2n1C(c1ccccc1)c1ccccc1 please.
6.1
